biological target: Glutaminase kidney isoform, mitochondrial (Homo sapiens, UniProt O94925); test: Inhibition of GAC (unknown origin)
Sequence (O94925 whole entry, canonical isoform): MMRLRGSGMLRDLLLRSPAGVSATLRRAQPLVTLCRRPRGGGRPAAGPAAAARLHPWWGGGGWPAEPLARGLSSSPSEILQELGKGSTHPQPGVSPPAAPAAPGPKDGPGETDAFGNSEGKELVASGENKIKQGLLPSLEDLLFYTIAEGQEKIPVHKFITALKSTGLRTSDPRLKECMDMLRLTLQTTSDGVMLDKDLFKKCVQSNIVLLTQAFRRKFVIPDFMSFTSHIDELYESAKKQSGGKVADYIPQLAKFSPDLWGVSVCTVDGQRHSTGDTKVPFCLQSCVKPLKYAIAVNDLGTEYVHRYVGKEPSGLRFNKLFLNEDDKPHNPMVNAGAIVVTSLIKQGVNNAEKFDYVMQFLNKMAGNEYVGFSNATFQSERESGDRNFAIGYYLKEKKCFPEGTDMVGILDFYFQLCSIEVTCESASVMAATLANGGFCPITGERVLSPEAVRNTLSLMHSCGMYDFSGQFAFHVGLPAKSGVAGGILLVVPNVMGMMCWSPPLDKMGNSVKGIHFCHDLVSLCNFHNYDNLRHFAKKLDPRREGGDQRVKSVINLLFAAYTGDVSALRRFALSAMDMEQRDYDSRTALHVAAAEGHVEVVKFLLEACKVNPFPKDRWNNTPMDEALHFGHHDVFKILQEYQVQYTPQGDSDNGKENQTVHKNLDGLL
measurement-kind: IC50

Consider the following illustrative entries.
molecule	IC50
O=C(Cc1ccccc1)Nc1nnc(CCCCc2cnc3[nH]c(Cc4ccccc4)nc3c2)s1	> 500 nM
O=C(Cc1ccccc1)Nc1ccn(CCCCc2cc3cc(Cc4ccccc4)[nH]c3nn2)c(=O)c1	< 100 nM
O=C(Cc1ccccc1)Nc1ccn(CCCCn2ccc(NC(=O)Cc3ccccc3)nc2=O)c(=O)n1	> 500 nM

Batch request: IC50 per item, same order as input.
1. O=C(Cc1ccccc1)Nc1ccn(CCCCc2nnc(NC(=O)Cc3ccccc3)s2)c(=O)n1
2. O=C(Cc1ccccc1)Nc1nnc([C@@H]2CC[C@H](c3nnc(NC(=O)Cc4ccccc4)s3)C2)s1
3. O=C(Cc1ccccc1)Nc1ccn(CCCCn2cc(C(=O)NCc3cccc(OC(F)(F)F)c3)nn2)c(=O)c1F
4. O=C(Cc1ccccc1)Nc1nnc(CCCCc2cc3cc(Cc4ccccc4)[nH]c3nn2)s1
5. O=C(Cc1ccccc1)Nc1nnc([C@@H]2CCC[C@H](c3nnc(NC(=O)Cc4ccccc4)s3)C2)s1
6. O=C(Cc1ccccc1)Nc1ccn(CCCCc2nnc(NC(=O)Cc3ccccc3)s2)c(=O)c1
7. O=C(NCc1ccccc1)c1cn(CCCCc2cc3cc(Cc4ccccc4)[nH]c3nn2)nn1

Response:
1: < 100 nM; 2: 1000 to 2000 nM; 3: < 100 nM; 4: < 100 nM; 5: 1000 to 2000 nM; 6: < 100 nM; 7: < 100 nM

====

Field: pIC50. Provide a value for each of the compounds that follow.
target: Glutaminase kidney isoform, mitochondrial (Homo sapiens, UniProt O94925); experiment: Inhibition of GAC (unknown origin)
pIC50: −log10 of the molar value.

Batch request: pIC50 per item, same order as input.
1. O=C(Cc1ccccc1)Nc1nnc([C@H]2CCC[C@H](c3nnc(NC(=O)Cc4ccccc4)s3)C2)s1 (racemic)
2. O=C(Cc1ccccc1)Nc1ccn(CCCCc2ccc(NC(=O)Cc3cccc(OC(F)(F)F)c3)nn2)c(=O)c1

Response:
> 7.00
> 7.00

// sample O=C(Cc1ccccc1)Nc1nnc([C@H]2CC[C@H](c3nnc(NC(=O)Cc4ccccc4)s3)C2)s1 (racemic) , its pIC50 was 6.30 to 7.00
